Origin of the recorded values: ChEMBL document CHEMBL1201862

tested on: SK-OV-3; assay: NCI tumour cell line growth inhibition, 48 h
Calls of active or inactive are those of the source. No stated cut-off is given here; in the data, active = GI50 up to about 1.1 µM and inactive = higher.
experimental.endpoint: GI50

Observe how each entry below is paired with its result.
Incoming: Return value of GI50 for input Cc1cnc2c(c1)C(=O)N(c1ccc(Oc3ccccc3)cc1)S2(=O)=O , no commentary.
Outgoing: > 100 µM (inactive)

Incoming: Return value of GI50 for input NC(=O)[N+](=CC(=S)Nc1ccccc1Cl)C(N)=O , no commentary.
Outgoing: > 100 µM (inactive)

Incoming: Return value of GI50 for input Cn1c(=S)[nH]c2sc3c(c2c1=O)CCSC3 , no commentary.
Outgoing: 90.8 µM (inactive)

Incoming: Return value of GI50 for input CCCCn1cnc2c(c(CC#N)nn2-c2ccccc2)c1=N , no commentary.
Outgoing: > 100 µM (inactive)

Incoming: Return value of GI50 for input NC1=NN(c2ccccc2)C(=O)C1C(=O)C(=O)Nc1ccc(Cl)c(Cl)c1 (stereo not given) , no commentary.
Outgoing: > 100 µM (inactive)

Incoming: Return value of GI50 for input OCC1O[C@H](O[C@@H]2CCCN3CC(O)C(O)[C@@H]23)C(O)C(O)C1O (stereo not given in full) , no commentary.
Outgoing: > 100 µM (inactive)

Incoming: Return value of GI50 for input C/C(=C\c1csc(C)n1)[C@@H]1C[C@@H]2O[C@@H]2CCC[C@H](C)[C@H](O)[C@@H](C)C(=O)C(C)(C)[C@@H](O)CC(=O)O1 [EPOTHILONE A] , no commentary.
Outgoing: < 0.0001 µM (active)

Incoming: Return value of GI50 for input O=C(CN1CCOCC1)Nc1ccc2c(c1)C1Oc3ccccc3CC1CO2 (stereo not given) , no commentary.
Outgoing: > 100 µM (inactive)

Incoming: Return value of GI50 for input O=C(O)CCC/N=C(\C(=N\CCCC(=O)O)c1ccccc1)c1ccccc1 , no commentary.
Outgoing: > 100 µM (inactive)

Read the next record carefully.
Incoming: Return value of GI50 for input C=CC1=CSNN1 , no commentary.
Outgoing: > 100 µM (inactive)

----------
test system: SNB-19; test: NCI tumour cell line growth inhibition, 48 h
Activity calls are given as the source filed them. Rule as the data show it: active = GI50 up to about 1.1 µM and inactive = higher.
Reported GI50 values for a set of molecules

Incoming: Return value of GI50 for input CCOC(=O)C(NC(=O)c1ccccc1)(Nc1cc(C)on1)C(F)(F)F (stereo unspecified) , no commentary.
Outgoing: > 100 µM (inactive)

Incoming: Return value of GI50 for input COC(=O)C1(Cc2ccc3c(c2)CCC3)Cc2ccccc2C1O (stereo unspecified) , no commentary.
Outgoing: 19.3 µM (inactive)

Incoming: Return value of GI50 for input Nc1nc(OCC2CCCCC2)c2nc[nH]c2n1 , no commentary.
Outgoing: 25.2 µM (inactive)

Incoming: Return value of GI50 for input CCOC(=O)c1ccc(Nc2cnc3ccc(C(F)(F)F)cc3n2)cc1 , no commentary.
Outgoing: 28.1 µM (inactive)

Incoming: Return value of GI50 for input C#CCNC(CSSCC(N)C(=O)O)C(=O)O (stereo unspecified) , no commentary.
Outgoing: > 100 µM (inactive)

Incoming: Return value of GI50 for input CCC1=CC2Cc3nc4cc(Cl)ccc4c(N)c3C(C1)C2 (stereo unspecified) , no commentary.
Outgoing: 9.12 µM (inactive)

Incoming: Return value of GI50 for input OCCNc1nc2c(N3CCCC3)nc(N3CCNCC3)nc2nc1NCc1ccccc1 , no commentary.
Outgoing: 15.8 µM (inactive)

Incoming: Return value of GI50 for input CC(=O)c1c2c(cc3c1CC1(Cc4ccccc4C1=O)C3)CCC2 (stereo unspecified) , no commentary.
Outgoing: 45.2 µM (inactive)

Incoming: Return value of GI50 for input CC(=O)N/C(=C\c1ccccc1/C=C(\NC(C)=O)c1nc2cc(C)c(C)cc2[nH]1)c1nc2cc(C)c(C)cc2[nH]1 , no commentary.
Outgoing: 6.81 µM (inactive)

Incoming: Return value of GI50 for input Oc1ccc(-c2nc3ccc(Cl)cc3s2)cc1 , no commentary.
Outgoing: 20.2 µM (inactive)

---
Incoming: Return value of GI50 for input CCOC(=O)C1=C(C)N(NC(=O)OC)C2(N)N(NC(=O)OC)C(C)=C(C(=O)OCC)C12C#N (stereo unspecified) , no commentary.
Outgoing: > 100 µM (inactive)

Incoming: Return value of GI50 for input CCN(CC)Cc1cc(Nc2ccnc3ccc4nn(C)nc4c23)ccc1O , no commentary.
Outgoing: 28 µM (inactive)

Incoming: Return value of GI50 for input C[C@]12CCC3[C@@H](CC[C@@H]4c5nonc5CC[C@]34C)C1CCC2=O (stereo partly specified) , no commentary.
Outgoing: 40.4 µM (inactive)

Incoming: Return value of GI50 for input O=C(N/N=C/C=C/c1ccccc1)c1ccccc1Nc1ccccc1C(=O)N/N=C/C=C/c1ccccc1 , no commentary.
Outgoing: 11.9 µM (inactive)

Incoming: Return value of GI50 for input CN(C)c1cccc(-c2cc(O)c3cc4c(cc3n2)OCO4)c1 , no commentary.
Outgoing: 0.365 µM (active)

Incoming: Return value of GI50 for input COc1cc(NS(C)(=O)=O)ccc1N1Cc2c[nH]c3ccc4nccc1c4c23 , no commentary.
Outgoing: 34.7 µM (inactive)

Incoming: Return value of GI50 for input Cn1c(=S)[nH]c2sc3c(c2c1=O)CCSC3 , no commentary.
Outgoing: 47.4 µM (inactive)

Incoming: Return value of GI50 for input CSC1=N/C(=C\c2ccc(C)cc2)C(=O)N1CN1CCOCC1 , no commentary.
Outgoing: 37.5 µM (inactive)

Incoming: Return value of GI50 for input COc1cccc(C2C3=C(COC3=O)Oc3cc4c(cc32)OCO4)c1 (stereo unspecified) , no commentary.
Outgoing: 0.187 µM (active)

Incoming: Return value of GI50 for input C[C@@H]1CC2(C[C@@H](C)C3[C@@H](CC4(C)CCCC5C6=CC(O)(CC[C@]34C)OC6=CC(=O)OC5(C)C)O2)OC1=O (stereo partly specified) , no commentary.
Outgoing: > 100 µM (inactive)

Incoming: Return value of GI50 for input O=C1c2cc([N+](=O)[O-])cnc2S(=O)(=O)N1c1ccc(Oc2ccccc2)cc1 , no commentary.
Outgoing: > 100 µM (inactive)

Incoming: Return value of GI50 for input Cc1[nH]c(O)nc1C(=O)c1ccc(-n2ccnc2)cc1 , no commentary.
Outgoing: > 100 µM (inactive)

Incoming: Return value of GI50 for input CCCCn1cnc2c(c(CC#N)nn2-c2ccccc2)c1=N , no commentary.
Outgoing: > 100 µM (inactive)

Incoming: Return value of GI50 for input O=C1C[C@@H]2[C@@H](CCC23CCCC3)N1 , no commentary.
Outgoing: > 100 µM (inactive)

Incoming: Return value of GI50 for input CO/N=C1\CCC2(O)C3Cc4ccc(O)c5c4C2(CCN3CC2CC2)[C@H]1O5 (stereo partly specified) , no commentary.
Outgoing: > 100 µM (inactive)

Incoming: Return value of GI50 for input C=C(C(=O)OC)N1C(=O)CC(C)C1=O (stereo unspecified) , no commentary.
Outgoing: 21.4 µM (inactive)

Incoming: Return value of GI50 for input O=C1c2ccccc2C(=O)c2c(O)c(O)cc(O)c21 [PURPURIN] , no commentary.
Outgoing: 34.1 µM (inactive)

Incoming: Return value of GI50 for input CCN1C(C)=NC2C(=O)c3ccccc3C(=O)C21 (stereo unspecified) , no commentary.
Outgoing: 81.7 µM (inactive)

Incoming: Return value of GI50 for input CN1CN(c2ccccc2)C2(CCN(C(=O)OC(C)(C)C)CC2)C1=O , no commentary.
Outgoing: > 100 µM (inactive)

Incoming: Return value of GI50 for input S=C1NNC(=S)NN1 , no commentary.
Outgoing: > 1 µM (active)

----------
test system: T47D; experiment: NCI tumour cell line growth inhibition, 48 h
Activity calls are given as the source filed them. Rule as the data show it: active = GI50 up to about 1.1 µM and inactive = higher.
Reported GI50 values for a set of compounds

Observe how each entry below is paired with its result.
Incoming: Return value of GI50 for input NC(=S)Nc1ccc2c(c1)oc1ccccc12 , no commentary.
Outgoing: > 31.5 µM (inactive)

Incoming: Return value of GI50 for input Nc1cccc(CCN2CCN(CCCc3ccccc3)CC2)c1 , no commentary.
Outgoing: 20.3 µM (inactive)

Incoming: Return value of GI50 for input CCOC(=O)CC/C(C)=N\n1c(Cc2ccc(Cl)cc2)n[nH]c1=O , no commentary.
Outgoing: > 100 µM (inactive)

Incoming: Return value of GI50 for input COc1ccc(C(=O)N(C(=S)OCCOc2ccccc2)c2ccccc2)cc1 , no commentary.
Outgoing: 19.9 µM (inactive)

Read the next record carefully.
Incoming: Return value of GI50 for input COc1ccc(S(=O)(=O)NC(CCC(=O)NN)C(=O)NN)cc1 (stereo not given) , no commentary.
Outgoing: > 100 µM (inactive)
